Origin of the recorded values: patent US8574556B2

Tested on: Staphylococcus aureus CCARM3505(QRSA)
protocol: Broth microdilution MIC
Format: cell-based
conditions: Staphylococcus aureus CCARM3505(QRSA); read-out: MIC
Each entry below lists one item and its recorded MIC value.

molecule | MIC, µg/mL
CCn1cc(C(=O)O)c(=O)c2cc(F)c(N3CCNCC3)cc21 | 250
CC1(C)CC[C@]2(C)CC[C@@]3(C(=O)O)C(=CCC4[C@@]5(C)CC[C@@H](O)[C@@](C)(CO)C5CC[C@]43C)C2C1 (stereo partly shown) | 4
Cc1onc(-c2ccccc2)c1C(=O)N[C@@H]1C(=O)N2[C@@H]1SC(C)(C)[C@@H]2C(=O)O | 0.5
CC1(C)CC[C@]2(C)CC[C@@]3(C(=O)O)C(=CCC4[C@@]5(C)CCC(=O)C(C)(C)C5CC[C@]43C)C2C1 (stereo partly shown) | 8

###

System: Bacillus subtilis KCTC1021
protocol: Broth microdilution MIC
Type: cell-based
conditions: read-out: MIC

compound | unit | MIC
CC1(C)CC[C@]2(C)CC[C@@]3(C(=O)O)C(=CCC4[C@@]5(C)CCC(=O)C(C)(C)C5CC[C@]43C)C2C1 (stereo partly shown) | µg/mL | 2
Cc1onc(-c2ccccc2)c1C(=O)N[C@@H]1C(=O)N2[C@@H]1SC(C)(C)[C@@H]2C(=O)O | µg/mL | 0.25
CCn1cc(C(=O)O)c(=O)c2cc(F)c(N3CCNCC3)cc21 | µg/mL | 0.25
CC1(C)CC[C@]2(C)CC[C@@]3(C(=O)O)C(=CCC4[C@@]5(C)CC[C@@H](O)[C@@](C)(CO)C5CC[C@]43C)C2C1 (stereo partly shown) | µg/mL | 1

###

Each entry below lists one item and its recorded MIC value.
System: Staphylococcus aureus CCARM3519(QRSA)
protocol: Broth microdilution MIC
Type: cell-based
conditions: Staphylococcus aureus CCARM3519(QRSA); read-out: MIC

molecule | test_target | MIC / µg/mL
CC1(C)CC[C@]2(C)CC[C@@]3(C(=O)O)C(=CCC4[C@@]5(C)CC[C@@H](O)[C@@](C)(CO)C5CC[C@]43C)C2C1 (stereo partly shown) [Aceriphyllic acid A, Aceriphyllic Acid A] | Staphylococcus aureus CCARM3519(QRSA) | 4
CCn1cc(C(=O)O)c(=O)c2cc(F)c(N3CCNCC3)cc21 [Norfloxacin] | Staphylococcus aureus CCARM3519(QRSA) | 125
CC1(C)CC[C@]2(C)CC[C@@]3(C(=O)O)C(=CCC4[C@@]5(C)CCC(=O)C(C)(C)C5CC[C@]43C)C2C1 (stereo partly shown) [3-Oxo-12-oleanen-27-oic acid] | Staphylococcus aureus CCARM3519(QRSA) | 8
Cc1onc(-c2ccccc2)c1C(=O)N[C@@H]1C(=O)N2[C@@H]1SC(C)(C)[C@@H]2C(=O)O [Oxacillin] | Staphylococcus aureus CCARM3519(QRSA) | 0.5

###

Test system: Streptococcus mutans KCTC3065
protocol: Broth microdilution MIC
Assay type: cell-based
conditions: read-out: MIC
test_readout: MIC (µg/mL)

compound | test_target | unit | observed_value
CC1(C)CC[C@]2(C)CC[C@@]3(C(=O)O)C(=CCC4[C@@]5(C)CCC(=O)C(C)(C)C5CC[C@]43C)C2C1 (stereo partly shown) [3-Oxo-12-oleanen-27-oic acid] | Streptococcus mutans KCTC3065 | µg/mL | 4
CCn1cc(C(=O)O)c(=O)c2cc(F)c(N3CCNCC3)cc21 [Norfloxacin] | Streptococcus mutans KCTC3065 | µg/mL | 8
Cc1onc(-c2ccccc2)c1C(=O)N[C@@H]1C(=O)N2[C@@H]1SC(C)(C)[C@@H]2C(=O)O [Oxacillin] | Streptococcus mutans KCTC3065 | µg/mL | 0.06
CC1(C)CC[C@]2(C)CC[C@@]3(C(=O)O)C(=CCC4[C@@]5(C)CC[C@@H](O)[C@@](C)(CO)C5CC[C@]43C)C2C1 (stereo partly shown) [Aceriphyllic acid A, Aceriphyllic Acid A] | Streptococcus mutans KCTC3065 | µg/mL | 2

###

Each entry below lists one item and its recorded MIC value.
System: Staphylococcus aureus CCARM3167(MRSA)
protocol: Broth microdilution MIC
Assay type: cell-based
conditions: Staphylococcus aureus CCARM3167(MRSA); read-out: MIC

compound | MIC, µg/mL
CC1(C)CC[C@]2(C)CC[C@@]3(C(=O)O)C(=CCC4[C@@]5(C)CC[C@@H](O)[C@@](C)(CO)C5CC[C@]43C)C2C1 (stereo partly shown) | 4
Cc1onc(-c2ccccc2)c1C(=O)N[C@@H]1C(=O)N2[C@@H]1SC(C)(C)[C@@H]2C(=O)O | 500
CCn1cc(C(=O)O)c(=O)c2cc(F)c(N3CCNCC3)cc21 | 8
CC1(C)CC[C@]2(C)CC[C@@]3(C(=O)O)C(=CCC4[C@@]5(C)CCC(=O)C(C)(C)C5CC[C@]43C)C2C1 (stereo partly shown) | 4

###

Tested on: Streptococcus pneumoniae KCTC3932
protocol: Broth microdilution MIC
Type: cell-based
conditions: read-out: MIC
test_readout: MIC (µg/mL)

molecule | test_target | observed_value
CCn1cc(C(=O)O)c(=O)c2cc(F)c(N3CCNCC3)cc21 | Streptococcus pneumoniae KCTC3932 | 2
Cc1onc(-c2ccccc2)c1C(=O)N[C@@H]1C(=O)N2[C@@H]1SC(C)(C)[C@@H]2C(=O)O | Streptococcus pneumoniae KCTC3932 | 2
CC1(C)CC[C@]2(C)CC[C@@]3(C(=O)O)C(=CCC4[C@@]5(C)CC[C@@H](O)[C@@](C)(CO)C5CC[C@]43C)C2C1 (stereo partly shown) | Streptococcus pneumoniae KCTC3932 | 32
CC1(C)CC[C@]2(C)CC[C@@]3(C(=O)O)C(=CCC4[C@@]5(C)CCC(=O)C(C)(C)C5CC[C@]43C)C2C1 (stereo partly shown) | Streptococcus pneumoniae KCTC3932 | 16
